test: Distribution coefficient, log D of the compound pH 7.5; assay type: physicochemical; conditions: octanol/water
readoutLabel: logD
Form field (numeric): enter value without unit.

Q. Would you kindly share the measured logD for "COc1nnc2sc(C(=O)NC3CN(c4ncc(C(F)(F)F)cn4)C3)c(N)c2c1C" ?
A. 3.73

----------
experiment: Fraction unbound in rat plasma; type: ADME, cell-free
readoutLabel: fraction unbound
Form field (numeric): enter value without unit.

Some compounds with recorded fraction unbound:
{"inputSmiles": "Cc1c(Cl)nnc2sc(C(=O)NC3CN(c4ncc(C(F)(F)F)cn4)C3)c(N)c12", "val": 0.022}
{"inputSmiles": "COc1nnc2sc(C(=O)NC3CN(c4ncc(C(F)(F)F)cn4)C3)c(N)c2c1C", "val": 0.018}
{"inputSmiles": "Cc1nnc2sc(C(=O)NC3CN(c4ncc(C(F)(F)F)cn4)C3)c(N)c2c1C", "val": 0.028}

Q. Would you kindly share the measured fraction unbound for "Cc1c(Cl)nnc2sc(C(=O)NC3CN(c4cc(C(F)(F)F)ncc4Cl)C3)c(N)c12" ?
A. 0.019

Q. Would you kindly share the measured fraction unbound for "COc1cc(N2CC(NC(=O)c3sc4nnc(Cl)c(C)c4c3N)C2)c(Cl)cn1" ?
A. 0.005

Q. Would you kindly share the measured fraction unbound for "Cc1c(CF)nnc2sc(C(=O)NC3CN(c4ncc(C(F)(F)F)cn4)C3)c(N)c12" ?
A. 0.034

Q. Would you kindly share the measured fraction unbound for "Cc1c(C(F)F)nnc2sc(C(=O)NC3CN(c4ncc(C(F)(F)F)cn4)C3)c(N)c12" ?
A. 0.017
